target: CXCR4 receptor (human, UniProt P61073 1-352); experiment: cell-based or functional assay
Sequence (P61073 whole entry): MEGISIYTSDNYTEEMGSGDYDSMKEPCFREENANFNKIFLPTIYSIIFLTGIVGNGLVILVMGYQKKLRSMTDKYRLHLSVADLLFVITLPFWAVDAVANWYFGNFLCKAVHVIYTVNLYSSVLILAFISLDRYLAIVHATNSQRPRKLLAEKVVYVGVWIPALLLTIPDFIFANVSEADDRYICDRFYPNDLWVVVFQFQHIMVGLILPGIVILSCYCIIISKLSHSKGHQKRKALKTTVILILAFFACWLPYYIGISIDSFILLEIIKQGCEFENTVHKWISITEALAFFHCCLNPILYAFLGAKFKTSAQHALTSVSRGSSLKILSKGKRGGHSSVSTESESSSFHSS
* marks the point of attachment. Palmitoyl = CCCCCCCCCCCCCCCC(=O)*
Recorded Endpoint: AUC (% of), CHTX, SUP B-15, 1.0 uM (%)
Report only the number, with the unit % understood.

Binder	AUC (% of), CHTX, SUP B-15, 1.0 uM [%]
Palmitoyl-MGYQKKLRSMTDKY-NH2 (SMILES CCCCCCCCCCCCCCCC(=O)N[C@@H](CCSC)C(=O)NCC(=O)N[C@@H](Cc1ccc(O)cc1)C(=O)N[C@@H](CCC(N)=O)C(=O)N[C@@H](CCCCN)C(=O)N[C@@H](CCCCN)C(=O)N[C@@H](CC(C)C)C(=O)N[C@@H](CCCNC(=N)N)C(=O)N[C@@H](CO)C(=O)N[C@@H](CCSC)C(=O)N[C@H](C(=O)N[C@@H](CC(=O)O)C(=O)N[C@@H](CCCCN)C(=O)N[C@@H](Cc1ccc(O)cc1)C(N)=O)[C@@H](C)O) [CXCR4 i1 loop compound 37]	63.5

Could you now look at the following binder, please?
Prompt: Using known records, supply AUC (% of), CHTX, SUP B-15, 1.0 uM for Palmitoyl-VMGYQKKLRSMTD-NH2 (SMILES CCCCCCCCCCCCCCCC(=O)N[C@H](C(=O)N[C@@H](CCSC)C(=O)NCC(=O)N[C@@H](Cc1ccc(O)cc1)C(=O)N[C@@H](CCC(N)=O)C(=O)N[C@@H](CCCCN)C(=O)N[C@@H](CCCCN)C(=O)N[C@@H](CC(C)C)C(=O)N[C@@H](CCCNC(=N)N)C(=O)N[C@@H](CO)C(=O)N[C@@H](CCSC)C(=O)N[C@H](C(=O)N[C@@H](CC(=O)O)C(N)=O)[C@@H](C)O)C(C)C) [CXCR4 i1 loop compound 35]
Completion: 31.7

# credit: patent US20130210709A1
